# SYSTEM_TESTED: T1, soluble human TLR3 extracellular domain (human, UniProt O15455 24-703)
# T1 construct: also called hTLR3 extracellular domain; extracellular domain of human TLR3
# PROTOCOL_DETAILS: ELISA, coated soluble hTLR3 extracellular domain, HRP-labeled anti-human IgG
Catalogue of EC50 values

Example results:
BINDER	EC50
human-adapted anti-TLR3 mAb HV7/LV7 (antibody, human IgG4, V domains shown, Human IgG4 (S228P, F234A, L235A), kappa; not shown: human kappa light chain constant region) VH: QVQLVQSGAEVKKPGSSVKVSCKASGGTFSTYWIHWVRQAPGQGLEWMGEINPNNGRINYNEKFKTRVTITADESTSTAYMELSSLRSEDTAVYYCARVGVMITTFPYWGRGTLVTVSS VL: DIQMTQSPSSLSASVGDRVTITCRASGNIHNYLAWFQQKPGKAPKSLIYNAKTLADGVPSRFSGSGSGTDFTLTISSLQPEDFATYYCQHFWSTPFTFGQGTKLEIK	4.26 µg/mL
human-adapted anti-TLR3 mAb HV1/LV7 (antibody, human IgG4, V domains shown, Human IgG4 (S228P, F234A, L235A), kappa; not shown: human kappa light chain constant region) VH: QVQLVQSGAEVKKPGASVKVSCKASGYTFTTYWIHWVRQAPGQRLEWMGEINPNNGRINYNEKFKTRVTITRDTSASTAYMELSSLRSEDTAVYYCARVGVMITTFPYWGQGTLVTVSS VL: DIQMTQSPSSLSASVGDRVTITCRASGNIHNYLAWFQQKPGKAPKSLIYNAKTLADGVPSRFSGSGSGTDFTLTISSLQPEDFATYYCQHFWSTPFTFGQGTKLEIK	0.289 µg/mL

Then there is this binder:
[in] Fill in the blank: the reported EC50 of human-adapted anti-TLR3 mAb HV4/LV5 (antibody, human IgG4, V domains shown, Human IgG4 (S228P, F234A, L235A), kappa; not shown: human kappa light chain constant region) VH: QVQLVQSGAEVKKPGASVKVSCKASGYTFTTYWIHWVRQAPGQGLEWMGEINPNNGRINYNEKFKTRVTMTRDTSISTAYMELSRLRSDDTAVYYCARVGVMITTFPYWGQGTLVTVSS VL: DIQMTQSPSSLSASVGDRVTITCRASGNIHNYLAWYQQKPGKVPKLLIYNAKTLADGVPSRFSGSGSGTDFTLTISSLQPEDVATYYCQHFWSTPFTFGGGTKVEIK is ____.
[out] 0.0187 µg/mL
